conditions: human, serum
Assay metric: Hepatotoxicity (acute)

CC(=O)[C@H]1CC[C@H]2[C@@H]3CC[C@H]4C[C@H](O)CC[C@]4(C)[C@H]3C(=O)C[C@]12C.C[C@]12CC[C@@H](O)C[C@@H]1CC[C@H]1[C@@H]3CC[C@H](C(=O)CO)[C@@]3(C)CC(=O)[C@@H]12	0
CN(N=O)C(=O)N[C@@H](C=O)[C@@H](O)[C@H](O)[C@H](O)CO	3
COc1cc2nc(N3CCN(C(=O)c4ccco4)CC3)nc(N)c2cc1OC	1
C[C@@H](O)[C@H]1C(=O)N2C(C(=O)O)=C(S[C@@H]3CN[C@H](C(=O)Nc4cccc(C(=O)O)c4)C3)[C@H](C)[C@H]12	0
NS(=O)(=O)c1cc2c(cc1Cl)NC(C(Cl)Cl)NS2(=O)=O (stereo not given) [TRICHLORMETHIAZIDE]	0

Attention now turns to another entry.
Task: Give its Hepatotoxicity (acute) value. Item: O=P(O)(O)C(Sc1ccc(Cl)cc1)P(=O)(O)O
Result: 0

----------
settings: human
Assay metric: Hepatotoxicity (granulomatous hepatitis)
Quick one: just the number, no unit, thanks!

Completed entries (count: 7):
CNC1=Nc2ccc(Cl)cc2C(c2ccccc2)=[N+]([O-])C1 [CHLORDIAZEPOXIDE]	0
C[C@]12C=CC(=O)C=C1CC[C@@H]1[C@@H]2[C@@H](O)C[C@@]2(C)[C@H]1CC[C@]2(O)C(=O)CO	0
COc1ccc(OC)c(Cc2cnc3nc(N)nc(N)c3c2C)c1	0
CC(=O)Oc1cccc2c1C(=O)c1c(OC(C)=O)cc(C(=O)O)cc1C2=O	0
O=C1c2c(O)ccc(O)c2C(=O)c2c(NCCNCCO)ccc(NCCNCCO)c21	0
CC(=N)N1CC[C@H](SC2=C(C(=O)O)N3C(=O)[C@H]([C@@H](C)O)[C@H]3C2)C1.O=C(O)CCNC(=O)c1ccccc1	0
CCOC(=O)C1=C(C)NC(C)=C(C(=O)OC)C1c1cccc([N+](=O)[O-])c1 (stereo not drawn)	0

Task: Give its Hepatotoxicity (granulomatous hepatitis) value. Item: CC(=O)/N=c1/sc(S(N)(=O)=O)nn1C [METHAZOLAMIDE]
Result: 0

----------
details: human, serum
Assay metric: Hepatotoxicity (moderate)
Quick one: just the number, no unit, thanks!

Completed entries (count: 4):
Cc1cccc(Nc2ccncc2S(=O)(=O)NC(=O)NC(C)C)c1 [TORSEMIDE]	1
CCC1(c2ccccc2)C(=O)NC(=O)N(C)C1=O (stereo not given)	0
Cc1ccc2c(c1)C(N1CCN(C)CC1)=Nc1ccccc1S2	2
COc1ccc(C(CN(C)C)C2(O)CCCCC2)cc1 (stereo not given)	3

Task: Give its Hepatotoxicity (moderate) value. Item: O=C(NCCN1CCC(n2c(=O)[nH]c3cc(Cl)ccc32)CC1)c1ccc(F)cc1 [HALOPEMIDE]
Result: 1

----------
settings: human, serum, 4383 h
Assay metric: Hepatotoxicity (chronic liver disease)
Quick one: just the number, no unit, thanks!

Task: Give its Hepatotoxicity (chronic liver disease) value. Item: N=C(N)c1ccc(OCCCCCOc2ccc(C(=N)N)cc2)cc1 [PENTAMIDINE]
Result: 0

Task: Another: CCC/C=C/C=C/C(=O)O[C@H]1/C(=C/C(=O)OC)C[C@H]2C[C@H]([C@@H](C)O)OC(=O)C[C@H](O)C[C@@H]3C[C@H](OC(C)=O)C(C)(C)[C@](O)(C[C@@H]4C/C(=C/C(=O)OC)C[C@H](/C=C/C(C)(C)[C@]1(O)O2)O4)O3 [BRYOSTATIN 1]
Result: 0

Task: Another: COCCCOc1ccnc(C[S+]([O-])c2nc3ccccc3[nH]2)c1C (stereo not drawn) [RABEPRAZOLE]
Result: 0

Task: Another: Nc1ncnc2c1ncn2CCOCP(=O)(O)O [ADEFOVIR]
Result: 0

Task: Another: COc1cc2c(cc1OC)C(=O)C(CC1CCN(Cc3ccccc3)CC1)C2 (stereo not drawn) [DONEPEZIL]
Result: 0

Task: Another: CCC(=O)[C@@]1(C)CC[C@H]2[C@@H]3CCC4=CC(=O)CCC4=C3CC[C@@]21C [PROMEGESTONE]
Result: 0

Task: Another: C/C=C(/CC)C(=O)NC(N)=O
Result: 0

Task: Another: O=c1[nH]c2ccccc2n1C1CCN(CCCC(c2ccc(F)cc2)c2ccc(F)cc2)CC1 [PIMOZIDE]
Result: 0
